- System: RPMI-8226 leukemia
- Test: NCI tumour cell line growth inhibition, 48 h
Observation Type: GI50

Some molecules with recorded GI50:
{"Mol Smiles": "CCOC(=O)Nc1ccc2nc(N3CCCCCC3)sc2c1", "System": "RPMI-8226 leukemia", "GI50": "3.33 µM"}
{"Mol Smiles": "NS(=O)(=O)c1ccc(N=Nc2c(O)[nH]c3ccc(C(=O)NCCc4cnc[nH]4)cc23)cc1", "System": "RPMI-8226 leukemia", "GI50": "> 25 µM"}
{"Mol Smiles": "COc1cc(-c2cc(-c3cccs3)c(C#N)c(N3CCOCC3)n2)cc(OC)c1OC", "System": "RPMI-8226 leukemia", "GI50": "4.07 µM"}

Below is a list of molecules. For each, state its recorded GI50.
1. Fc1ccc(Nc2ncc(-c3cc(F)c(Cl)cc3Cl)s2)cc1Cl
2. CC(C)C(=O)Nc1ccc(-c2nc(-c3cccc(OCCN4CCOCC4)c3)c(-c3ccnc(Br)c3)[nH]2)cc1

## Output
["9.38 µM", "1.09 µM"]
